Reference source for all entries: patent US20140011799A1

Biological target: Endothelial lipase (EL) (Homo sapiens, UniProt Q9Y5X9)
Construct: HT-1080 cells that were transformed using RAGE technology (Athersys) to overexpress endogenous EL; endogenous in cells; conditioned medium used
Sequence (Q9Y5X9 21-500): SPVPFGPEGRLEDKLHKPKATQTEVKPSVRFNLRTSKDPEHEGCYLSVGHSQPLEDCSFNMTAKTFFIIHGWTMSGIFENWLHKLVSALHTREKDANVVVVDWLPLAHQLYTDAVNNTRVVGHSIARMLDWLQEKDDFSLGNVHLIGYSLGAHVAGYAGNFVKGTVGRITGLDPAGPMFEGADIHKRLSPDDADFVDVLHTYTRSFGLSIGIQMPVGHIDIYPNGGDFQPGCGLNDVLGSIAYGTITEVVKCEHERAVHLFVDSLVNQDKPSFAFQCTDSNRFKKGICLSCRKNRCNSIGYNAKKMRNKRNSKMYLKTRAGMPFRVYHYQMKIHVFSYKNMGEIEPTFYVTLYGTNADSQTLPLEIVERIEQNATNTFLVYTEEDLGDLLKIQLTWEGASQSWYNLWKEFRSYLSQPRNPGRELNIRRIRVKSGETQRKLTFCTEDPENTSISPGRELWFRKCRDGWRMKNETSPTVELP
Assay: Endothelial lipase (EL) enzymatic assay, fluorescent substrate A10070 in DMPG vesicles
Type: biochemical
Settings: EL from conditioned media of HT-1080 cells; compound preincubated 30 min at 37° C; read-out: EL IC50
pIC50: −log10 of the molar value.
// pIC50 lookup, one value per entry
Reported endpoint: pIC50

>>> reported_measurement("COCCS(=O)(=O)C(c1nnc(CNS(=O)(=O)NC(=O)OC(C)(C)C)o1)c1nc2ccc(-c3cnn(C)c3)cc2s1 (stereo not shown)")
6.93
>>> reported_measurement("CS(=O)(=O)C(c1nnc(CNS(N)(=O)=O)o1)c1nc2ccc(-c3cccc(C(=O)Nc4nnc(C(F)(F)F)o4)c3)cc2s1 (stereo not shown)")
8.15
>>> reported_measurement("O=S(=O)(O)Cc1nnc(C(c2nc3ccc(-c4ccccc4)cc3s2)S(=O)(=O)Cc2ccc(F)cc2)o1 (stereo not shown)")
6.88
